Assay: in vitro
Design: PAMPA blood-brain barrier permeability, effective permeability Pe
Details: PAMPA-BBB Pe
I'd appreciate it if you could supply Papp values for the items below.
Kindly provide the numeric value in ×10⁻⁶ cm/s only, without the unit symbol.

Request: Input N#Cc1ccc2sc(NCC(=O)Nc3c4c(nc5c3CCC5)CCCC4)nc2c1 [7e] , output reported Papp.
Result: 13.9

Request: Input Cc1c(C)c2c(c(C)c1O)CCC(C)(C(=O)NCC(=O)Nc1c3c(nc4c1CCC4)CCCC3)O2 (stereo not drawn) [compound 6] , output reported Papp.
Result: 15.9

Request: Input O=C(CNc1nc2cccc([N+](=O)[O-])c2s1)Nc1c2c(nc3c1CCC3)CCCC2 [7k] , output reported Papp.
Result: 1.12

Request: Input CSc1ccc2nc(NCC(=O)Nc3c4c(nc5c3CCC5)CCCC4)sc2c1 [7l] , output reported Papp.
Result: 2.65

Request: Input O=C(CNc1nc2c(Br)cccc2s1)Nc1c2c(nc3c1CCC3)CCCC2 [7d] , output reported Papp.
Result: 2.62

Request: Input CC12CC3CC(C)(C1)CC(NCC(=O)Nc1c4c(nc5c1CCC5)CCCC4)(C3)C2 [5b] , output reported Papp.
Result: 7.63

Request: Input O=C(CNc1nc2cc(Br)ccc2s1)Nc1c2c(nc3c1CCC3)CCCC2 [7c] , output reported Papp.
Result: 2.13

Request: Input O=C(CNc1nc2ccc(Br)cc2s1)Nc1c2c(nc3c1CCC3)CCCC2 [7b] , output reported Papp.
Result: 3.74

Request: Input O=C(CNc1nc2cc(Cl)ccc2s1)Nc1c2c(nc3c1CCC3)CCCC2 [7g] , output reported Papp.
Result: 2.8

* * *

Biological target: hAChE (human recombinant acetylcholinesterase) (Homo sapiens, UniProt P22303)
Construct: gene ACHE; recombinant enzyme, purchased from Sigma-Aldrich
Sequence (P22303 32-614): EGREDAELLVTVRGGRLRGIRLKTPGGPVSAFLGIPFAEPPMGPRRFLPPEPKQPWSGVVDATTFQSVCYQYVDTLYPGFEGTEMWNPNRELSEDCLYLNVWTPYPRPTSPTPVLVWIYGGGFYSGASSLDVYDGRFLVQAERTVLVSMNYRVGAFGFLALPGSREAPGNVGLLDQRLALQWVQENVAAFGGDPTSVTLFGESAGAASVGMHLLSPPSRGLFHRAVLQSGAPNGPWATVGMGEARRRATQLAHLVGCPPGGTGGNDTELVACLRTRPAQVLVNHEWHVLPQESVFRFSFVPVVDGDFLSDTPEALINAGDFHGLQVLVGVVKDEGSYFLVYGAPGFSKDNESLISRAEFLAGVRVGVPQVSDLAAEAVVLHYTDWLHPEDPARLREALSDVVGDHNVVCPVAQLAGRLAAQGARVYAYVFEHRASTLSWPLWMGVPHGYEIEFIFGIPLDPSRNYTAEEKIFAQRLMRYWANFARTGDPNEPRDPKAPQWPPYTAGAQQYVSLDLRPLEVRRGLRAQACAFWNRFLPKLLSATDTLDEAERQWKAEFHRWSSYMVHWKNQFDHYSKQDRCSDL
Experiment: biochemical
Parameters: modified Ellman assay, cholinesterase activity, absorbance at 412 nm
Description: The inhibitory activities of 5–7 and all the reference compounds were determined using modified Ellman’s method against human recombinant AChE (hAChE, E.C. 3.1.1.7, purchased from Sigma-Aldrich, Prague, Czech Republic) and human plasmatic BChE (hBChE, E.C. 3.1.1.8, purchased from Sigma-Aldrich, Prague, Czech Republic). […] The increase of absorbance was measured at 412 nm using Multimode microplate reader Synergy 2 (BioTek Inc., Winooski, VT, USA). […]
measurement_name: inhibition at 1 µM
In your response, the unit should come after the numeric value.

Request: Input O=C(CNC12CC3CC(CC(C3)C1)C2)Nc1c2c(nc3c1CCC3)CCCC2 [5a] , output reported inhibition at 1 µM.
Result: 2.83%

Request: Input O=C(CNc1nc2ccc([N+](=O)[O-])cc2s1)Nc1c2c(nc3c1CCC3)CCCC2 [7i] , output reported inhibition at 1 µM.
Result: 7.98%

Request: Input N#Cc1ccc2sc(NCC(=O)Nc3c4c(nc5c3CCC5)CCCC4)nc2c1 [7e] , output reported inhibition at 1 µM.
Result: 13.3%

Request: Input O=C(CNc1nc2cc(Br)ccc2s1)Nc1c2c(nc3c1CCC3)CCCC2 [7c] , output reported inhibition at 1 µM.
Result: 15.7%

Request: Input O=C(CNc1nc2cc(Cl)ccc2s1)Nc1c2c(nc3c1CCC3)CCCC2 [7g] , output reported inhibition at 1 µM.
Result: 11.9%

Request: Input O=C(CNc1nc2ccc(OC(F)(F)F)cc2s1)Nc1c2c(nc3c1CCC3)CCCC2 [7m] , output reported inhibition at 1 µM.
Result: 13.3%

Request: Input Clc1nc2ccccc2s1 [7a, 2-chlorobenzothiazole] , output reported inhibition at 1 µM.
Result: 1.46%

Request: Input O=C(CNc1nc2cccc([N+](=O)[O-])c2s1)Nc1c2c(nc3c1CCC3)CCCC2 [7k] , output reported inhibition at 1 µM.
Result: 9.62%

Request: Input CC12CC3CC(C)(C1)CC(NCC(=O)Nc1c4c(nc5c1CCC5)CCCC4)(C3)C2 [5b] , output reported inhibition at 1 µM.
Result: 9.13%

Request: Input O=C(CNc1nc2c(Br)cccc2s1)Nc1c2c(nc3c1CCC3)CCCC2 [7d] , output reported inhibition at 1 µM.
Result: 1.8%

Request: Input O=C(CNc1nc2ccc(Br)cc2s1)Nc1c2c(nc3c1CCC3)CCCC2 [7b] , output reported inhibition at 1 µM.
Result: 18.5%

Request: Input CSc1ccc2nc(NCC(=O)Nc3c4c(nc5c3CCC5)CCCC4)sc2c1 [7l] , output reported inhibition at 1 µM.
Result: 7.56%

Request: Input Cc1c(C)c2c(c(C)c1O)CCC(C)(C(=O)NCC(=O)Nc1c3c(nc4c1CCC4)CCCC3)O2 (centres unmarked) [compound 6] , output reported inhibition at 1 µM.
Result: 3.95%

Request: Input O=C(CNc1nc2cc([N+](=O)[O-])ccc2s1)Nc1c2c(nc3c1CCC3)CCCC2 [7j] , output reported inhibition at 1 µM.
Result: 8.2%

* * *

Assay: in vitro
Set-up: MTT viability assay, undifferentiated SH-SY5Y cells
Conditions: human, undifferentiated sh-sy5y cells, read-out: SH-SY5Y IC50
Just a reminder that ties go to false (0): only CC50 at 24 h strictly below 70 µM counts as true (1).

Request: Is CC50 at 24 h strictly under 70 µM for the entry Clc1nc2ccccc2s1 ?
Result: false (0)

Request: Is CC50 at 24 h strictly under 70 µM for the entry O=C(CNc1nc2cccc([N+](=O)[O-])c2s1)Nc1c2c(nc3c1CCC3)CCCC2 ?
Result: true (1)

Request: Is CC50 at 24 h strictly under 70 µM for the entry O=C(CNC12CC3CC(CC(C3)C1)C2)Nc1c2c(nc3c1CCC3)CCCC2 ?
Result: false (0)

Request: Is CC50 at 24 h strictly under 70 µM for the entry CSc1ccc2nc(NCC(=O)Nc3c4c(nc5c3CCC5)CCCC4)sc2c1 ?
Result: false (0)

Request: Is CC50 at 24 h strictly under 70 µM for the entry O=C(CNc1nc2ccc(OC(F)(F)F)cc2s1)Nc1c2c(nc3c1CCC3)CCCC2 ?
Result: true (1)

* * *

Target: hBChE (human serum / plasmatic butyrylcholinesterase) (Homo sapiens, UniProt P06276)
Construct: gene BCHE; native enzyme from human plasma/serum, purchased from Sigma-Aldrich
Sequence (P06276 29-602): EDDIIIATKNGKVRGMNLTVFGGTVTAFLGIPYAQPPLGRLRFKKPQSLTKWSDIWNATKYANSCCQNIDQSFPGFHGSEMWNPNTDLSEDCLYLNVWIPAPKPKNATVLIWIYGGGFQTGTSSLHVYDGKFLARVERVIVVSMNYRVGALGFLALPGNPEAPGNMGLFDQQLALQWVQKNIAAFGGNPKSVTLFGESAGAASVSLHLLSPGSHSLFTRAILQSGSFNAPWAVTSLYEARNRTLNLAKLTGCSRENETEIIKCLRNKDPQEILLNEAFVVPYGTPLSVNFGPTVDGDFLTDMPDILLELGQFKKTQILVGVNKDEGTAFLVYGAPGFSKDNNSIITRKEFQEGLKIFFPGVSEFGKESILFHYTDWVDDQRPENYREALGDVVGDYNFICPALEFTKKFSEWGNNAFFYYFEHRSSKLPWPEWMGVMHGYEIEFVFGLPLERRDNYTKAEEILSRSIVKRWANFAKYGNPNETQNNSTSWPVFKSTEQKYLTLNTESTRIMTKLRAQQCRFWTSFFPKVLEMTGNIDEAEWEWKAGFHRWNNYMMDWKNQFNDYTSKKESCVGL
Experiment: biochemical
Parameters: modified Ellman assay, cholinesterase activity, absorbance at 412 nm
I'd appreciate it if you could supply inhibition at 1 µM values for the items below.
Kindly provide the numeric value in % only, without the unit symbol.

Request: Please report the measured inhibition at 1 µM for Cc1c(C)c2c(c(C)c1O)CCC(C)(C(=O)NCC(=O)Nc1c3c(nc4c1CCC4)CCCC3)O2 (centres unmarked) tested on hBChE (human serum / plasmatic butyrylcholinesterase) (Homo sapiens, UniProt P06276).
Result: 21.5

Request: Please report the measured inhibition at 1 µM for O=C(CNc1nc2ccc([N+](=O)[O-])cc2s1)Nc1c2c(nc3c1CCC3)CCCC2 tested on hBChE (human serum / plasmatic butyrylcholinesterase) (Homo sapiens, UniProt P06276).
Result: 0.93

Request: Please report the measured inhibition at 1 µM for O=C(CNc1nc2ccc(OC(F)(F)F)cc2s1)Nc1c2c(nc3c1CCC3)CCCC2 tested on hBChE (human serum / plasmatic butyrylcholinesterase) (Homo sapiens, UniProt P06276).
Result: 1.5

Request: Please report the measured inhibition at 1 µM for CC12CC3CC(C)(C1)CC(NCC(=O)Nc1c4c(nc5c1CCC5)CCCC4)(C3)C2 tested on hBChE (human serum / plasmatic butyrylcholinesterase) (Homo sapiens, UniProt P06276).
Result: 18.6

Request: Please report the measured inhibition at 1 µM for N#Cc1ccc2sc(NCC(=O)Nc3c4c(nc5c3CCC5)CCCC4)nc2c1 tested on hBChE (human serum / plasmatic butyrylcholinesterase) (Homo sapiens, UniProt P06276).
Result: 13.9

Request: Please report the measured inhibition at 1 µM for Clc1nc2ccccc2s1 tested on hBChE (human serum / plasmatic butyrylcholinesterase) (Homo sapiens, UniProt P06276).
Result: 7.19

Request: Please report the measured inhibition at 1 µM for O=C(CNC12CC3CC(CC(C3)C1)C2)Nc1c2c(nc3c1CCC3)CCCC2 tested on hBChE (human serum / plasmatic butyrylcholinesterase) (Homo sapiens, UniProt P06276).
Result: 14

Request: Please report the measured inhibition at 1 µM for O=C(CNc1nc2cc(Cl)ccc2s1)Nc1c2c(nc3c1CCC3)CCCC2 tested on hBChE (human serum / plasmatic butyrylcholinesterase) (Homo sapiens, UniProt P06276).
Result: 26.5

Request: Please report the measured inhibition at 1 µM for O=C(CNc1nc2cc(Br)ccc2s1)Nc1c2c(nc3c1CCC3)CCCC2 tested on hBChE (human serum / plasmatic butyrylcholinesterase) (Homo sapiens, UniProt P06276).
Result: 25

Request: Please report the measured inhibition at 1 µM for O=C(CNc1nc2cccc([N+](=O)[O-])c2s1)Nc1c2c(nc3c1CCC3)CCCC2 tested on hBChE (human serum / plasmatic butyrylcholinesterase) (Homo sapiens, UniProt P06276).
Result: 4.47

Request: Please report the measured inhibition at 1 µM for O=C(CNc1nc2ccc(Br)cc2s1)Nc1c2c(nc3c1CCC3)CCCC2 tested on hBChE (human serum / plasmatic butyrylcholinesterase) (Homo sapiens, UniProt P06276).
Result: 10.8

Request: Please report the measured inhibition at 1 µM for CSc1ccc2nc(NCC(=O)Nc3c4c(nc5c3CCC5)CCCC4)sc2c1 tested on hBChE (human serum / plasmatic butyrylcholinesterase) (Homo sapiens, UniProt P06276).
Result: 6.05

Request: Please report the measured inhibition at 1 µM for O=C(CNc1nc2cc([N+](=O)[O-])ccc2s1)Nc1c2c(nc3c1CCC3)CCCC2 tested on hBChE (human serum / plasmatic butyrylcholinesterase) (Homo sapiens, UniProt P06276).
Result: 8.03

Request: Please report the measured inhibition at 1 µM for O=C(CNc1nc2c(Br)cccc2s1)Nc1c2c(nc3c1CCC3)CCCC2 tested on hBChE (human serum / plasmatic butyrylcholinesterase) (Homo sapiens, UniProt P06276).
Result: 6.73
